Tested on: Chordin-like protein 2 (CHRDL2)
MEASUREMENT DESCRIPTION: compounds binding chordin-like 2 – biochemical, small-molecule microarray, 635 nm fluorescence, primary screen (AID 1126);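 also: printed compound slides probed with Chrdl2 protein at 4 µg/mL for 1 h at 4 C; score merges 667 nm emission intensity with signal to noise over three replicate slides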
CONDITIONS USED: fluorescence 635 nm, higher = more signal
Decide using composite z-score: a value greater than or equal to -0.1 is Satisfied, a smaller one is Not satisfied.

-- ask Exam item: decide whether the reported composite z-score for CCCCC(=C=CC[C@H](O)c1ccccc1OCCO)C[C@H](O)c1cc(Cl)cc(Cl)c1O is at least -0.1.
-- reply Not satisfied

-- ask Exam item: decide whether the reported composite z-score for C=CCN1C(=O)[C@@]2(O[C@@H](CCO)[C@H]([Si](C)(C)c3ccc(OC)cc3)[C@H]2C)c2cc(NC(C)=O)ccc21 is at least -0.1.
-- reply Satisfied

-- ask Exam item: decide whether the reported composite z-score for COc1ccccc1CN1C(=O)c2ccccc2[C@](Cc2ccccc2I)(C(=O)NC2CC2)[C@@H]1c1ccc(CO)cc1 is at least -0.1.
-- reply Satisfied

-- ask Exam item: decide whether the reported composite z-score for COC(=O)[C@@]1(Cc2ccc(OC)cc2)[C@H]2c3cc(C(=O)N4CCCC4)n(CCc4ccccn4)c3C[C@H]2CN1C(=O)c1ccccc1 is at least -0.1.
-- reply Not satisfied

-- ask Exam item: decide whether the reported composite z-score for C#C[C@H]1Oc2ccccc2S(=O)(=O)N2CCC[C@@H]12 is at least -0.1.
-- reply Satisfied

-- ask Exam item: decide whether the reported composite z-score for COCCOC(=O)N1C(=O)[C@@]2(c3cc(C#Cc4ccc(OC)cc4)ccc31)[C@H](c1ccc(OCCO)cc1)N1[C@H](c3ccccc3)[C@H](c3ccccc3)OC(=O)[C@H]1[C@@H]2C(=O)N1CCc2cc(OC)c(OC)cc2C1 is at least -0.1.
-- reply Satisfied

-- ask Exam item: decide whether the reported composite z-score for CC(C)(C)OC(=O)CC[C@@]1(C(N)=O)N=C(c2ccc(OCCCO)cc2)O[C@@H]1c1ccccc1N=[N+]=[N-] is at least -0.1.
-- reply Not satisfied

-- ask Exam item: decide whether the reported composite z-score for COCCOC(=O)N1C(=O)[C@@]2(c3cc(C#Cc4ccc(OC)cc4)ccc31)[C@H](c1ccc(O)cc1)N1[C@H](c3ccccc3)[C@H](c3ccccc3)OC(=O)[C@H]1[C@@H]2C(=O)N1CCN(c2ncccn2)CC1 is at least -0.1.
-- reply Not satisfied

-- ask Exam item: decide whether the reported composite z-score for COCCOC(=O)N1C(=O)[C@@]2(c3cc(C#CCCO)ccc31)[C@H](c1ccc(O)cc1)N1[C@H](c3ccccc3)[C@H](c3ccccc3)OC(=O)[C@H]1[C@@H]2C(=O)N1CCCCCCC1 is at least -0.1.
-- reply Satisfied

-- ask Exam item: decide whether the reported composite z-score for C=C(COC)C(=O)CC[C@@H](OC(=O)c1ccccc1-c1ccccc1C(=O)O)c1ccc(CO)o1 is at least -0.1.
-- reply Satisfied

-- ask Exam item: decide whether the reported composite z-score for O=C1OCCC=C[C@H]2OC34C=CCN(CCN5CCOCC5)C(=O)[C@H]3N(CCO)C(=O)[C@@H]4C12 (some centres undefined) is at least -0.1.
-- reply Satisfied

-- ask Exam item: decide whether the reported composite z-score for O=[N+]([O-])c1ccc(C[n+]2ccc(CCCO)cc2)o1 is at least -0.1.
-- reply Satisfied

-- ask Exam item: decide whether the reported composite z-score for O=C1C2C=CC(C(O)C3CC=CCC3)N(n3cnnc3)C2C(=O)N1Cc1ccccc1 (centres undefined) is at least -0.1.
-- reply Not satisfied

-- ask Exam item: decide whether the reported composite z-score for CCN(CC)c1ccc(N2CC=CC34O[C@@H]5/C=C\CCC(C)OC(=O)C5[C@H]3C(=O)N(CCCCCCO)[C@@H]4C2=O)cc1 (some centres undefined) is at least -0.1.
-- reply Not satisfied

-- ask Exam item: decide whether the reported composite z-score for COCCOC(=O)N1C(=O)[C@@]2(c3cc(C#CCC(C(=O)OC)C(=O)OC)ccc31)[C@H](c1ccc(OCCO)cc1)N1[C@H](c3ccccc3)[C@H](c3ccccc3)OC(=O)[C@H]1[C@@H]2C(=O)NC[C@H](O)c1ccccc1 is at least -0.1.
-- reply Satisfied

-- ask Exam item: decide whether the reported composite z-score for CCCCCCCCCCC(O)C1C=CC2C(=O)N(c3ccccc3)C(=O)C2N1Nc1ccc([N+](=O)[O-])cc1 (centres undefined) is at least -0.1.
-- reply Not satisfied

-- ask Exam item: decide whether the reported composite z-score for [N-]=[N+]=NCc1ccccc1C[C@@]1(C(=O)NCc2ccccc2)N=C(c2ccc(OCCCO)cc2)O[C@@H]1c1ccccc1CN=[N+]=[N-] is at least -0.1.
-- reply Not satisfied

-- ask Exam item: decide whether the reported composite z-score for CN1C(=O)C2C=CC(C(O)C=Cc3ccc([N+](=O)[O-])cc3)N(N3CCCCC3)C2C1=O (centres undefined) is at least -0.1.
-- reply Satisfied

-- ask Exam item: decide whether the reported composite z-score for Oc1ccc2cc[n+](Cc3cccc(OC(F)(F)F)c3)cc2c1 is at least -0.1.
-- reply Satisfied

-- ask Exam item: decide whether the reported composite z-score for C=C(CCCC)/C(=C/C[C@H](OC(C)=O)c1ccc(CO)o1)c1cc(C(=O)OC)ccc1OC is at least -0.1.
-- reply Satisfied

-- ask Exam item: decide whether the reported composite z-score for C=C(CCCC)/C(=C/C[C@@H](OC(=O)c1ccncc1)c1ccc(CO)o1)c1cc(C(=O)OC)ccc1OC is at least -0.1.
-- reply Satisfied

-- ask Exam item: decide whether the reported composite z-score for CC1CC/C=C\[C@H]2OC34C=CCN(c5ccc6ccccc6c5)C(=O)[C@H]3N(CCCCCO)C(=O)[C@@H]4C2C(=O)O1 (some centres undefined) is at least -0.1.
-- reply Not satisfied

-- ask Exam item: decide whether the reported composite z-score for COCCCNC(=O)[C@]1(Cc2ccccc2N=[N+]=[N-])N=C(c2ccc(OCCCO)cc2)O[C@@H]1c1ccccc1CN=[N+]=[N-] is at least -0.1.
-- reply Satisfied

-- ask Exam item: decide whether the reported composite z-score for C=CC[C@]1(C(=O)NCCN2CCOCC2)N=C(c2ccc(OCCCO)cc2)O[C@H]1c1ccccc1N=[N+]=[N-] is at least -0.1.
-- reply Satisfied

-- ask Exam item: decide whether the reported composite z-score for C=CCC(OC(C)=O)[C@@H]1[C@@H](N(Cc2cc3ccccc3o2)C(=O)c2ccc(C)cc2)c2cc(OCCCO)ccc2N1C(=O)c1ccc(-c2ccccc2)cc1 (some centres undefined) is at least -0.1.
-- reply Satisfied

-- ask Exam item: decide whether the reported composite z-score for C=CC[C@@]1(C(=O)NCc2ccccc2)N=C(c2ccc(OCCCO)cc2)O[C@@H]1c1ccccc1CN=[N+]=[N-] is at least -0.1.
-- reply Not satisfied

-- ask Exam item: decide whether the reported composite z-score for CN1C(=O)C2C=CC(C(O)C3=C[C@H]4C[C@@H](C3)C4(C)C)N(Nc3ccc([N+](=O)[O-])cc3[N+](=O)[O-])C2C1=O (some centres undefined) is at least -0.1.
-- reply Satisfied

-- ask Exam item: decide whether the reported composite z-score for CCCC[C@H]1OB(O)C[C@H]2C1=C(COc1ccccc1)C[C@H]1C(=O)N(Cc3ccccc3)C(=O)[C@H]12 is at least -0.1.
-- reply Satisfied

-- ask Exam item: decide whether the reported composite z-score for [N-]=[N+]=Nc1ccccc1C[C@]1(C(=O)N2CCCCC2)N=C(c2ccc(OCCCO)cc2)O[C@H]1c1ccccc1N=[N+]=[N-] is at least -0.1.
-- reply Not satisfied
